# method_summary: physchem
# stated_conditions: 7% aqueous hpcd
readout_type: solubility (mg/mL)
Lab book: enter the figure in mg/mL, no units written.

Exercise: Requested field: solubility. Item: N[C@@H](Cc1ccc(N(CCCl)CCCl)cc1)C(=O)O
Solution: 10.5

* * *

# method_summary: physchem
# stated_conditions: 5% aqueous hpcd
readout_type: solubility at 84 h (µg/mL)
Please reply with the bare figure in µg/mL and do not write the unit itself.

Exercise: Please give the measured solubility at 84 h for this compound: O=C(O)CCCc1ccc(N(CCCl)CCCl)cc1
Solution: 1800

* * *

# method_summary: Phase-solubility experiments in aqueous HPCD at 30.0±0.2°C (chlorambucil, lomustine, melphalan)
# stated_conditions: 15% w/w aqueous hpcd
readout_type: solubility (mg/mL)
Return type: number; implicit unit mg/mL.

Exercise: Give the measured solubility of O=NN(CCCl)C(=O)NC1CCCCC1 [Lomustine] .
Solution: 6.26

* * *

# method_summary: Maximum concentrations of selected CDS in varying concentrations of selected cyclodextrins
# Type: physicochemical
# stated_conditions: 40% hebcd
readout_type: solubility
Put your answer as a value accompanied by its unit after it.

Exercise: // lookup solubility for CN1C=CCC(C(=O)O[C@H]2CC[C@H]3[C@@H]4CCc5cc(O)ccc5[C@H]4CC[C@]23C)=C1 [Example E2-CDS]
Solution: 6070 µg/mL

* * *

# method_summary: physchem
# stated_conditions: 4% aqueous hpcd
readout_type: solubility (µg/mL)
Quick note: give the figure in µg/mL, leave out the unit.

Exercise: For the compound shown here, N[C@@H](Cc1ccc(N(CCCl)CCCl)cc1)C(=O)O , give the reported solubility.
Solution: 7140

* * *

# method_summary: physchem
# stated_conditions: 20% aqueous hpcd
readout_type: solubility at 84 h (mg/mL)
Express your answer in mg/mL, writing the number without its unit.

Exercise: Any idea what solubility at 84 h was measured for O=C(O)CCCc1ccc(N(CCCl)CCCl)cc1 [Chlorambucil] ?
Solution: 13.1

* * *

# method_summary: physchem
# stated_conditions: 2% aqueous hpcd
readout_type: solubility at 3 h (µg/mL)
Number only, in µg/mL; omit the unit.

Exercise: solubility at 3 h for O=C(O)CCCc1ccc(N(CCCl)CCCl)cc1 ?
Solution: 1480

* * *

# method_summary: Preparation of solid freeze-dried HPCD complexes: degree of incorporation
# Format: physicochemical
# stated_conditions: freeze-dried complex from 50% w/w HPCD (ASDS 5.1)
readout_type: Amount of Drug in Dry Complex (mg/g)
Please reply with the bare figure in mg/g and do not write the unit itself.

Exercise: Look up Amount of Drug in Dry Complex for this molecule: CCC(=O)O[C@H]1CC[C@H]2[C@@H]3CCC4=CC(=O)CC[C@]4(C)[C@H]3CC[C@]12C [Testosterone 17-Propionate]
Solution: 65.6

Exercise: # input molecule: CN1C=CCC(C(=O)O[C@H]2CC[C@H]3[C@@H]4CCC5=CC(=O)CC[C@]5(C)[C@H]4CC[C@]23C)=C1 ; wanted: its Amount of Drug in Dry Complex
Solution: 29.0

Exercise: Any idea what Amount of Drug in Dry Complex was measured for CN1C=CCC(C(=O)O[C@H]2CC[C@H]3[C@@H]4CCc5cc(O)ccc5[C@H]4CC[C@]23C)=C1 [Example E2-CDS] ?
Solution: 37

Next:
Exercise: Find the recorded Amount of Drug in Dry Complex belonging to CN1C=CCC(C(=O)NCCc2ccc(OC(=O)C(C)(C)C)c(OC(=O)C(C)(C)C)c2)=C1 and report it.
Solution: 27
